Target: CDK9 (Homo sapiens)
Construct: host or cells: HEK293
Assay: CDK9 HIBIT PQ (protein quantification), degradation
Type: cell-based
Settings: Max = Maximum
In plain terms, low Dmax, meaning strictly below 60%, gives rule met, and everything else gives rule not met.

Solved cases below.
[[record]]
compound = "CC(C)Oc1c(-c2cn[nH]c2)ncn2nc(Nc3ccc(S(=O)(=O)N(C)CCCN4CCN(c5ccc6c(c5)n(C)c(=O)n6C5CCC(=O)NC5=O)CC4(C)C)cc3F)nc12 (racemic) [Compound 67]"
measurement_target = "CDK9 (Homo sapiens)"
qualitative_label = "rule not met"

[[record]]
compound = "CC(C)Oc1c(-c2cn[nH]c2)ncn2nc(Nc3c(F)cc(S(=O)(=O)N(C)CCCN4CCC(c5ccc6c(c5)n(C)c(=O)n6C5CCC(=O)NC5=O)CC4)cc3F)nc12 (racemic) [Compound 58]"
measurement_target = "CDK9 (Homo sapiens)"
qualitative_label = "rule not met"


Please turn your attention to the following entry.
Data request: Dmax strictly < 60% for this compound? CC(C)Oc1c(-c2cn[nH]c2)ncn2nc(Nc3ccc(S(=O)(=O)N4CCCC(CN5CCC(c6ccc7c(N8CCC(=O)NC8=O)nn(C)c7c6)CC5)C4)cc3F)nc12 (racemic) [Compound 87]
Data returned: rule not met

###

Listing of recorded DC50 by entry.
Target: CDK9 (Homo sapiens)
Construct: host or cells: HEK293
Experiment: CDK9 HIBIT PQ (protein quantification), degradation
Assay type: cell-based
Settings: PQ = Protein Quantification
I only need the number, in nM, no unit after it.

Answered examples (4):
[[record]]
compound = "CC(C)Oc1c(-c2cn[nH]c2)ncn2nc(NC3CCN(S(=O)(=O)c4cccc(CN5CC6(C5)CN(c5ccc7c(c5)CN(C5CCC(=O)NC5=O)C7=O)C6)c4)CC3)nc12 (racemic) [Compound 2]"
measurement_target = "CDK9 (Homo sapiens)"
endpoint_result = 25.7

[[record]]
compound = "CC(C)Oc1c(-c2cn[nH]c2)ncn2nc(Nc3ccc(S(=O)(=O)N4CCC5(CCCN5C5CCN(c6ccc7c(c6)n(C)c(=O)n7C6CCC(=O)NC6=O)CC5)C4)cc3F)nc12 (stereo not shown) [Compound 37]"
measurement_target = "CDK9 (Homo sapiens)"
endpoint_result = 43.7

[[record]]
compound = "CC(C)Oc1c(-c2cn[nH]c2)ncn2nc(Nc3ccc(S(=O)(=O)N(C)CCCN4CCN(c5ccc6c(c5)n(C)c(=O)n6C5CCC(=O)NC5=O)CC4)cc3F)nc12 (stereo not shown) [Compound 66]"
measurement_target = "CDK9 (Homo sapiens)"
endpoint_result = 1.87

[[record]]
compound = "CC(C)Oc1c(-c2cn[nH]c2)ncn2nc(Nc3ccc(S(=O)(=O)c4cccc(CN5C6CCC5CN(c5ccc7c(N8CCC(=O)NC8=O)nn(C)c7c5)C6)c4)cc3F)nc12 [Compound 46]"
measurement_target = "CDK9 (Homo sapiens)"
endpoint_result = 92.1


Field DC50 (entry CC(C)Oc1c(-c2cn[nH]c2)ncn2nc(N[C@H]3CCN(S(=O)(=O)N(C)CCCN4CCC(c5cccc6c5n(C)c(=O)n6C5CCC(=O)NC5=O)CC4)C[C@H]3C)nc12 (stereo partly shown) [Compound 7] ) reads 2.13

Field DC50 (entry CC(C)Oc1c(-c2cn[nH]c2)ncn2nc(NC3CCN(S(=O)(=O)c4cccc(CN5CCN(c6cc7c(cc6F)C(=O)N(C6CCC(=O)NC6=O)C7)CC5)c4)CC3)nc12 (racemic) [Compound 3] ) reads 19.4

Field DC50 (entry CC(C)Oc1c(-c2cn[nH]c2)ncn2nc(Nc3ccc(S(=O)(=O)c4cccc(CN5CCN(c6ccc7c(N8CCC(=O)NC8=O)nn(C)c7c6)CC5)c4)cc3F)nc12 [Compound 38] ) reads 24

Field DC50 (entry Cc1cc(Nc2nc3c(OC(C)C)c(-c4cn[nH]c4)ncn3n2)c(F)cc1S(=O)(=O)N(C)CCCN1CCC(c2ccc3c(c2)n(C)c(=O)n3C2CCC(=O)NC2=O)CC1 (racemic) [Compound 59] ) reads 1.34

Field DC50 (entry CC(C)Oc1c(-c2cn[nH]c2)ncn2nc(Nc3ccc(S(=O)(=O)c4cccc(CN5CCC(c6ccc7c(N8CCC(=O)NC8=O)nn(C)c7c6)CC5)c4)cc3F)nc12 [Compound 8] ) reads 10.2

Field DC50 (entry CC(C)Oc1c(-c2cn[nH]c2)ncn2nc(Nc3cc(F)c(S(=O)(=O)N(C)CCCN4CCC(c5ccc6c(c5)n(C)c(=O)n6C5CCC(=O)NC5=O)CC4)cc3F)nc12 (racemic) [Compound 60] ) reads 1.52

###

Molecular target: CCNE1 (Homo sapiens, UniProt P24864+P24941)
Construct: host or cells: HEK293
Assay: CCNE1 HIBIT PQ (protein quantification), degradation
Type: cell-based
Details: PQ = Protein Quantification
experimental.endpoint: DC50 (nM)
I only need the number, in nM, no unit after it.

Result for CC(C)Oc1c(-c2cn[nH]c2)ncn2nc(Nc3ccc(S(=O)(=O)N4CCC[C@H](CN5CC[C@@H](c6ccc7c(N8CCC(=O)NC8=O)nn(C)c7c6)CC5(C)C)C4)cc3F)nc12 (single isomer, unassigned) [Compound 102] , tested on CCNE1 (Homo sapiens, UniProt P24864+P24941), DC50: 1.34

###

Biological target: CDK2 (Homo sapiens, UniProt P24941)
Construct: host or cells: HEK293
Assay: CDK2 HIBIT PQ (protein quantification), degradation
Format: cell-based
Settings: PQ = Protein Quantification
Listing of recorded DC50 by entry.
I only need the number, in nM, no unit after it.

[[record]]
molecule = "CC(C)Oc1c(-c2cn[nH]c2)ncn2nc(Nc3ccc(S(=O)(=O)N(C)CCCN4CCN(c5ccc6c(c5)n(C)c(=O)n6C5CCC(=O)NC5=O)C[C@H]4C(C)C)cc3F)nc12 (stereo partly drawn)"
experimental_endpoint = "DC50"
endpoint_result = 0.2


Field DC50 (entry CC(C)Oc1c(-c2cn[nH]c2)ncn2nc(N[C@H]3CCN(S(=O)(=O)c4cccc(CN5CCN(c6ccc7c(N8CCC(=O)NC8=O)nn(C)c7c6)CC5)c4)C[C@H]3C)nc12 ) reads 3.6

Field DC50 (entry CC(C)Oc1c(-c2cn[nH]c2)ncn2nc(Nc3ccc(S(=O)(=O)N4CCCC(CN5CCC(c6ccc7c(N8CCC(=O)NC8=O)nn(C)c7c6)CC5)C4)cc3F)nc12 (racemic) [Compound 87] ) reads 0.4

###

Target: CDK2 (Homo sapiens)
Construct: host or cells: HEK293
Test: CDK2 HIBIT PQ (protein quantification), degradation
Type: cell-based
Details: PQ = Protein Quantification
experimental.endpoint: DC50 (nM)
I only need the number, in nM, no unit after it.

[[record]]
compound = "CC(C)Oc1c(-c2cn[nH]c2)ncn2nc(Nc3ccc(S(=O)(=O)N4CCC5(CCN(CC6CN(c7cccc8c7n(C)c(=O)n8C7CCC(=O)NC7=O)C6)C5)C4)cc3F)nc12 (stereo not shown)"
measurement_target = "CDK2 (Homo sapiens)"
unit_abbreviation = "nM"
endpoint_result = 4.7


Read the next record carefully.
Field DC50 (entry CC(C)Oc1c(-c2cn[nH]c2)ncn2nc(Nc3ccc(S(=O)(=O)c4cccc(C[C@H]5C[C@H](c6ccc7c(c6)CN(C6CCC(=O)NC6=O)C7=O)C5)c4)cc3F)nc12 (stereo partly shown) ) reads 7.2

###

Target: CDK9 (Homo sapiens, UniProt P50750)
Construct: host or cells: HEK293
Sequence (P50750 whole entry): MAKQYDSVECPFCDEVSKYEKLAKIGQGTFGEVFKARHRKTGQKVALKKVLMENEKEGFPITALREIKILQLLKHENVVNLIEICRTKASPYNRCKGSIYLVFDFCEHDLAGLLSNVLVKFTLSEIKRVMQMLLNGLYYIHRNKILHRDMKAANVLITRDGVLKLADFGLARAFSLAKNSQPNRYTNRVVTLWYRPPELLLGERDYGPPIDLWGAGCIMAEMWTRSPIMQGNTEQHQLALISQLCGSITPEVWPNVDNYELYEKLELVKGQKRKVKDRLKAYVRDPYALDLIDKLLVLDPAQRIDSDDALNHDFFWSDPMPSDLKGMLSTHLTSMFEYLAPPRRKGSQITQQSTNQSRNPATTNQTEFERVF
Test: CDK9 HIBIT PQ (protein quantification), degradation
Assay type: cell-based
Settings: Max = Maximum
experimental.endpoint: Dmax (%)
I only need the number, in %, no unit after it.

[[record]]
compound = "CC(C)Oc1c(-c2cn[nH]c2)ncn2nc(Nc3ccc(S(=O)(=O)c4cccc(CN5CCN(c6ccc7c(N8CCC(=O)NC8=O)nn(C)c7c6)CC5C)c4)cc3F)nc12 (racemic)"
experimental_endpoint = "Dmax"
unit_abbreviation = "%"
endpoint_result = 60

[[record]]
compound = "CC(C)Oc1c(-c2cn[nH]c2)ncn2nc(Nc3ccc(S(=O)(=O)N4CCC5(CCCN5C5CCN(c6ccc7c(c6)n(C)c(=O)n7C6CCC(=O)NC6=O)CC5)C4)cc3F)nc12 (stereo not shown)"
experimental_endpoint = "Dmax"
unit_abbreviation = "%"
endpoint_result = 51

[[record]]
compound = "CC(C)Oc1c(-c2cn[nH]c2)ncn2nc(Nc3ccc(S(=O)(=O)c4cccc(CN5CCN(c6ccc7c(N8CCC(=O)NC8=O)nn(C)c7c6)C(C(C)C)C5)c4)cc3F)nc12 (racemic)"
experimental_endpoint = "Dmax"
unit_abbreviation = "%"
endpoint_result = 75


Read the next record carefully.
Field Dmax (entry CC(C)Oc1c(-c2cn[nH]c2)ncn2nc(Nc3ccc(S(=O)(=O)N(C)CCCN4CCC(c5ccc6c(c5)n(C)c(=O)n6[C@H]5CCC(=O)NC5=O)CC4)cc3F)nc12 (racemic) ) reads 94
